Biological target: hSOS1 (hSOS1-mediated nucleotide exchange of hK-RasG12C) (Homo sapiens, UniProt Q07889)
Sequence (Q07889 with tags, fused parts or gaps): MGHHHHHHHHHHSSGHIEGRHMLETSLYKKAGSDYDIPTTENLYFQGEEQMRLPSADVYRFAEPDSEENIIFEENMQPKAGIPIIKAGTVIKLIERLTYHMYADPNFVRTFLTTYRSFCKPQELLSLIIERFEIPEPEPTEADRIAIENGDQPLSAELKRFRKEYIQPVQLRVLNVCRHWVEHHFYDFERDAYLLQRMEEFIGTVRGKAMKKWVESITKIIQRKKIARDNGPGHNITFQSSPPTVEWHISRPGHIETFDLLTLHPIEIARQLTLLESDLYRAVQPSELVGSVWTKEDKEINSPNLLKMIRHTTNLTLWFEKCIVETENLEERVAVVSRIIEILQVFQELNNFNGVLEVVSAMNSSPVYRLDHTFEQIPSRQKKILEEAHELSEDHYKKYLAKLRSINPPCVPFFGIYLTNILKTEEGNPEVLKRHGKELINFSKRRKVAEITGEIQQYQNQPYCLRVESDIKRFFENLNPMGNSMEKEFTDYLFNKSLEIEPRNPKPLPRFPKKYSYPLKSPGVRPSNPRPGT
A collection of compounds and their measured IC50
Recorded Metric: IC50

INSERT INTO measurements (compound, test_result) VALUES
  ('Cc1nc(NC(C)c2ccc(-c3ccccc3CN(C)C)s2)c2cc(N3CC(NC(=O)c4ccccc4)C3)ncc2n1 (stereo not drawn) [Example 88]', '161 nM'),
  ('Cc1nc(N[C@H](C)c2cccc(Br)c2)c2cc(NCCN3CCOCC3)ncc2n1 [Example 39]', '1360 nM'),
  ('CCOc1cc2c(N[C@H](C)c3cccc(Cl)c3)nc(C)nc2cn1 [Example 6]', '1120 nM'),
  ('Cc1nc(NC(C)c2ccc(-c3ccccc3CN(C)C)s2)c2cc(NCCn3ccnc3)ncc2n1 (stereo not drawn) [Example 56]', '93.9 nM'),
  ('Cc1nc(N[C@H](C)c2cccc(Br)c2)c2cc(Oc3cccc(C4=NCCN4C)c3)ncc2n1 [Example 41]', '2310 nM'),
  ('Cc1nc(NC(C)c2ccc(-c3ccccc3CN(C)C)s2)c2cc(N3CC(NC(=O)Cc4ccccc4)C3)ncc2n1 (stereo not drawn) [Example 89]', '111 nM'),
  ('CC(=O)NCCOc1cc2c(N[C@H](C)c3cccc(Br)c3)nc(C)nc2cn1 [Example 62]', '443 nM'),
  ('Cc1nc(N[C@H](C)c2cccc(Br)c2)c2nc(OCc3ccccc3)ncc2n1 [Example 20]', '> 20000 nM'),
  ('Cc1nc(N[C@H](C)c2cccc(Br)c2)c2nc(N(C)C)ccc2n1 [Example 31]', '≥ 40000 nM'),
  ('Cc1nc(NC(C)c2ccc(-c3ccccc3CN(C)C)s2)c2cc(N3CC(NC(=O)CCCn4c(-c5ccccn5)nc(C)c4C)C3)ncc2n1 (stereo not drawn) [Example 87]', '240 nM'),
  ('Cc1nc(NC(C)c2ccc(-c3ccccc3CN(C)C)s2)c2cc(Oc3cccc(C4=NCCN4C)c3)ncc2n1 (stereo not drawn) [Example 58]', '141 nM'),
  ('COCCOc1ccc2nc(C)nc(N[C@H](C)c3cccc(Br)c3)c2n1 [Example 30]', '5740 nM'),
  ('CSc1cc2c(NC(C)c3ccc(-c4ccccc4CN(C)C)s3)nc(C)nc2cn1 (stereo not drawn) [Example 59]', '67.9 nM'),
  ('Cc1nc(NC(C)c2ccc(-c3ccccc3CN(C)C)s2)c2cc(NCC3CCNC(=O)C3)ncc2n1 (stereo not drawn) [Example 86]', '127 nM'),
  ('CCOc1cc2c(N[C@H](C)c3cccc(S(C)(=O)=O)c3)nc(C)nc2cn1 [Example 7]', '1300 nM'),
  ('Cc1nc(N[C@H](C)c2cccc(Br)c2)c2nc(OCc3ccccc3)ccc2n1 [Example 33]', '> 20000 nM'),
  ('CCOc1cc2c(N[C@H](C)c3cccc(Br)c3)nc(C)nc2cn1 [Example 5]', '994 nM'),
  ('COc1cc2c(N[C@H](C)c3ccc(F)c(C4CC4)c3)nc(C)nc2cn1 [Example 12]', '6450 nM'),
  ('CC(=O)N(c1cccc(C(=O)NC2CN(c3cc4c(NC(C)c5ccc(-c6ccccc6CN(C)C)s5)nc(C)nc4cn3)C2)c1)C1CCN(C(=O)OC(C)(C)C)CC1 (stereo not drawn) [Example 98]', '428 nM'),
  ('Cc1nc(N[C@H](C)c2cccc(Br)c2)c2cc(OCCN(C)C)ncc2n1 [Example 78]', '1040 nM'),
  ('Cc1nc(NC(C)c2ccc(-c3ccccc3CN(C)C)s2)c2cc(Oc3cccc(O)c3)ncc2n1 (stereo not drawn) [Example 52]', '856 nM'),
  ('Cc1nc(NC(C)c2ccc(-c3ccccc3CN(C)C)s2)c2cc(NCCN3CCOCC3)ncc2n1 (stereo not drawn) [Example 48]', '141 nM'),
  ('Cc1nc(N[C@H](C)c2cccc(Br)c2)c2cc(N3CCNC(=O)C3)ncc2n1 [Example 45]', '506 nM'),
  ('Cc1nc(NC(C)c2ccc(-c3ccccc3CN(C)C)s2)c2cc(NCCn3cccn3)ncc2n1 (stereo not drawn) [Example 54]', '161 nM'),
  ('Cc1nc(N[C@H](C)c2cccc(Br)c2)c2cc(OCC3CC3)ncc2n1 [Example 75]', '3190 nM'),
  ('Cc1nc(N[C@H](C)c2cccc(Br)c2)c2cc(F)ncc2n1 [Example 34]', '> 20000 nM'),
  ('Cc1nc(N[C@H](C)c2cccc(Br)c2)c2cc(NCCn3cccn3)ncc2n1 [Example 49]', '3630 nM');
